Form field: MIC (one value per entry).
System: Escherichia coli P-5101
assay summary: In vitro antibacterial activity (MIC)
Format: cell-based
run parameters: Escherichia coli, P5101, read-out: minimum inhibitory concentration (MIC)
Counter-ions that a name gives are not always drawn.

## Input Request: MIC, test system Escherichia coli P-5101, entry CC1(C)S[C@@H]2[C@H](NC(=O)[C@H](NC(=O)c3c[nH]c4nc(N)ncc4c3=O)c3ccc(O)cc3)C(=O)N2[C@H]1C(=O)O [Compound G, sodium salt]
## Output 3.13 µg/mL

## Input Request: MIC, test system Escherichia coli P-5101, entry CN1CCN(c2ncc3c(=O)c(C(=O)N[C@@H](C(=O)N[C@@H]4C(=O)N5[C@@H]4SC(C)(C)[C@@H]5C(=O)O)c4ccc(O)cc4)c[nH]c3n2)CC1 [Compound A, sodium salt]
## Output 0.39 µg/mL

## Input Request: MIC, test system Escherichia coli P-5101, entry CNc1ncc2c(=O)c(C(=O)N[C@@H](C(=O)N[C@@H]3C(=O)N4[C@@H]3SC(C)(C)[C@@H]4C(=O)O)c3ccc(O)cc3)c[nH]c2n1 [Compound F, sodium salt]
## Output 3.13 µg/mL

## Input Request: MIC, test system Escherichia coli P-5101, entry CCN1CCN(C(=O)N[C@@H](C(=O)N[C@@H]2C(=O)N3[C@@H]2SC(C)(C)[C@@H]3C(=O)O)c2ccccc2)C(=O)C1=O [Compound H, sodium salt]
## Output 1.56 µg/mL

## Input Request: MIC, test system Escherichia coli P-5101, entry CC1(C)S[C@@H]2[C@H](NC(=O)[C@H](NC(=O)c3c[nH]c4nc(N5CCN(C=O)CC5)ncc4c3=O)c3ccccc3)C(=O)N2[C@H]1C(=O)O [Compound B, sodium salt]
## Output 3.13 µg/mL

## Input Request: MIC, test system Escherichia coli P-5101, entry CC1(C)S[C@@H]2[C@H](NC(=O)[C@H](N)c3ccc(O)cc3)C(=O)N2[C@H]1C(=O)O [Compound M, sodium salt]
## Output 6.25 µg/mL

## Input Request: MIC, test system Escherichia coli P-5101, entry `CCn1cc(C(=O)O)c(=O)c2cnc(N3CCNCC3)nc21`
## Output 3.13 µg/mL

* * *

assay summary: Urinary excretion in mice
Type: in vivo, male mice (ddY)
run parameters: mouse, urine; 25 mg/kg, im, single dose; 3-6 hour; read-out: c: urinary concentration
Structures can show the parent of a compound that is named as a salt.
observation type: concentration at 6 h (ng/mL)
Give just the numeric value; ng/mL need not be written.

## Input # query: concentration at 6 h of entry CC1(C)S[C@@H]2[C@H](NC(=O)[C@H](NC(=O)c3c[nH]c4nc(N5CCN(C=O)CC5)ncc4c3=O)c3ccc(O)cc3)C(=O)N2[C@H]1C(=O)O [Compound 1, sodium salt]
## Output 21500

* * *

Tested on: Escherichia coli P-5101
assay summary: In vivo efficacy against systemic infection
Set-up: species or system male mice (ddY)
run parameters: P5101, in Mus musculus, 168 h, iv, twice, about 5 minutes and 6 hours after infection, read-out: ED50 (median effective dose)
Counter-ions that a name gives are not always drawn.
observation type: log10(ED50) (log10 of the value in mg/kg)
Annotation: log10 of ED50, mg/kg basis.

Some solved entries appear below for comparison.
{"compound": "CN1CCN(c2ncc3c(=O)c(C(=O)N[C@@H](C(=O)N[C@@H]4C(=O)N5[C@@H]4SC(C)(C)[C@@H]5C(=O)O)c4ccc(O)cc4)c[nH]c3n2)CC1 [Compound A, sodium salt]", "assay system": "Escherichia coli P-5101", "value reported": -0.15}
{"compound": "CC1(C)S[C@@H]2[C@H](NC(=O)[C@H](N)c3ccc(O)cc3)C(=O)N2[C@H]1C(=O)O [Compound M, sodium salt]", "assay system": "Escherichia coli P-5101", "value reported": 0.51}
{"compound": "CCN1CCN(C(=O)N[C@@H](C(=O)N[C@@H]2C(=O)N3[C@@H]2SC(C)(C)[C@@H]3C(=O)O)c2ccccc2)C(=O)C1=O [Compound H, sodium salt]", "assay system": "Escherichia coli P-5101", "value reported": 1.64}
{"compound": "CC(=O)N1CCN(c2ncc3c(=O)c(C(=O)N[C@@H](C(=O)N[C@@H]4C(=O)N5[C@@H]4SC(C)(C)[C@@H]5C(=O)O)c4ccc(O)cc4)c[nH]c3n2)CC1 [Compound 2, sodium salt]", "assay system": "Escherichia coli P-5101", "value reported": 0.59}

We next turn to a different compound, shown below.
## Input Request: log10(ED50), test system Escherichia coli P-5101, entry CC1(C)S[C@@H]2[C@H](NC(=O)[C@H](NC(=O)c3c[nH]c4nc(N)ncc4c3=O)c3ccc(O)cc3)C(=O)N2[C@H]1C(=O)O [Compound G, sodium salt]
## Output 0.94
